- STUDY_TARGET: T1, cynomolgus monkey PVRIG on FlpinCHO-cyno PVRIG cells (cynomolgus monkey, UniProt A0A2K5WVV8 41-322)
- T1 construct: whole, on cells
- T1 sequence: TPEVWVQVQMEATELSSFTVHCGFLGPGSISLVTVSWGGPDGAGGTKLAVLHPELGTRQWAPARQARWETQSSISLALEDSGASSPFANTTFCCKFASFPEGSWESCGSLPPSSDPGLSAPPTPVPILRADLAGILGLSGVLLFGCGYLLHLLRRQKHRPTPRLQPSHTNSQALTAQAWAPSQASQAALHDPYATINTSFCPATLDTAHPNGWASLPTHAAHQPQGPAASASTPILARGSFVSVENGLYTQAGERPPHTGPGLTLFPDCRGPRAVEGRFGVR
- ASSAY_PROCEDURE: FACS, FlpinCHO-cyno PVRIG cells
METRIC: AUC % to SRF813-hIgG1 (%)
Give the value in % but do not write % after it.

Solved entries:
BINDER: PVRIG-A105 (Fc fusion, heavy chain antibody VHH-hinge-CH2-CH3, human IgG1 constant part; not shown: human IgG1 hinge-CH2-CH3) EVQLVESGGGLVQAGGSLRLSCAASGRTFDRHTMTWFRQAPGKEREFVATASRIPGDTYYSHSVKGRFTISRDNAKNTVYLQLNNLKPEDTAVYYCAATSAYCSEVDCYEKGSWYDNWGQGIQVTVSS
EXPERIMENTAL_VALUE: 108
//
BINDER: PVRIG-A50-H1b (Fc fusion, humanized variant of PVRIG-A50; also called A50.VH1b; not shown: constant part not restated for the humanized forms; parents are VHH-hinge-CH2-CH3 of human IgG1; detected by anti-human) EVQLVESGGGLVQPGGSLRLSCAASGFTFSYYDMSWVRQAPGKGLEWVSTINSDGGRTSYVDSVKGRFTISRDNSKNTLYLQMNSLRAEDTAVYYCVEGDPHNFGLESLSLRDFGSWGQGTMVTVSS
EXPERIMENTAL_VALUE: 42.2
//
BINDER: PVRIG-A50-H1 (Fc fusion, humanized variant of PVRIG-A50; also called A50.VH1; not shown: constant part not restated for the humanized forms; parents are VHH-hinge-CH2-CH3 of human IgG1; detected by anti-human) EVQLVESGGGLVQPGGSLRLSCAASGFTFSYYDMSWVRQAPGKGLEWVSTINSNGGRTSYVDSVKGRFTISRDNSKNTLYLQMNSLRAEDTAVYYCVEGDPHNFGLENLSLRDFGSWGQGTMVTVSS
EXPERIMENTAL_VALUE: 55.5

Prompt line: Could you tell me which AUC % to SRF813-hIgG1 is on file for PVRIG-A50-H2a (Fc fusion, humanized variant of PVRIG-A50; also called A50.VH2a; not shown: constant part not restated for the humanized forms; parents are VHH-hinge-CH2-CH3 of human IgG1; detected by anti-human) EVQLVESGGGLVQPGGSLRLSCAASGFTFSYYDMSWVRQAPGKGLEWVSTINSNAGRTSYVDSVKGRFTISRDNTKNTLYLQMNSLRAEDTAVYYCVEGDPHNFGLESLSLRDFGSWGQGTMVTVSS ?
Response line: 52.1
